Each entry below lists one item and its recorded koff value.
# target.or.system: T1, Cynomolgus TCR(AEA41865/AEA41866)-zipper protein (cynomolgus monkey)
# T1 construct: also called cyTCR-zipper protein; cynoTCR zipper
# T1 TCR alpha: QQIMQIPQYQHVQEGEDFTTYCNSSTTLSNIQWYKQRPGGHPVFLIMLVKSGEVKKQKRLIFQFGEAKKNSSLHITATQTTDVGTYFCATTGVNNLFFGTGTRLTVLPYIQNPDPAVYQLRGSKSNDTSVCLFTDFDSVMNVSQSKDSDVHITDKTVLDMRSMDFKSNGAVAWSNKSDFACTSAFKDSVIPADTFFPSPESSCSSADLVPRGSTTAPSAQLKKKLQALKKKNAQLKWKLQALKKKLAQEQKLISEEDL
# T1 TCR beta: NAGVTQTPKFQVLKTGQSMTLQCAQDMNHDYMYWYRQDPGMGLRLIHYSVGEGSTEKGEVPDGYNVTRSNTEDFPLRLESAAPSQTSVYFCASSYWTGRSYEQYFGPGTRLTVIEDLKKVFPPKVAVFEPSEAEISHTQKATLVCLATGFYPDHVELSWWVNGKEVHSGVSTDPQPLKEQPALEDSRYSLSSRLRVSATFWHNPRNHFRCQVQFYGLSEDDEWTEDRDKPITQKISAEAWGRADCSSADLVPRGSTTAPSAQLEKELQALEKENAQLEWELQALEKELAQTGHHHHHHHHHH
# test.protocol: SPR ProteOn off-rate screen
Express your answer as a number followed by its unit.

Use these answered entries as a reference point.
binder	recorded.endpoint	value.reported
T017000602 (VHH) VHH: EVQLVESGGGVVQPGGSLRLSCVASWDVHQINFLGWYRQAPGKEREKVAHISIGDQTDYADSAKGRFTISRDESKNMVYLQMNSLRPEDTALYFCRAFSKIWPYDYWGQGTLVTVSS	koff	0.00055 s⁻¹
T017000406 (VHH) VHH: EVQLVESGGGVVQPGGSLRLSCVASGYVHQINFYGWYRQAPGKEREKVAHISIGDQTDYADSAKGRFTISRDESKNMVYLQMNSLRPEDTALYFCRAMSRIWPYDYWGQGTLVTVSS	koff	0.00138 s⁻¹
T017000434 (VHH) VHH: EVQLVESGGGVVQPGGSLRLSCVASGSVHKLNFYGWYRQAPGKEREKVAHISIGDQTDYADSAKGRFTISRDESKNMVYLQMNSLRPEDTALYFCRAMSRIYPYDYWGQGTLVTVSS	koff	0.00153 s⁻¹
T017000589 (VHH) VHH: EVQLVESGGGVVQPGGSLRLSCVASGYVHKLNFYGWYRQAPGKEREKVAHISIGDQTDYADSAKGRFTISRDESKNMVYLQMNSLRPEDTALYFCRAMSRIWPYDWWGQGTLVTVSS	koff	0.00115 s⁻¹

QUERY: For the binder T017000442 (VHH) VHH: EVQLVESGGGVVQPGGSLRLSCVASGYVHKLNFYGWYRQAPGKEREKVAHISIGDQTDYADSAKGRFTISRDESKNMVYLQMNSLRPEDTALYFCRAMSRIYPYDYWGQGTLVTVSS , what koff is on record?
RESULT: 0.00146 s⁻¹

QUERY: Proceed to T017000377 (VHH) VHH: EVQLVESGGGVVQPGGSLRLSCVASWDVHKINFYGWYRQAPGKEREKVAHISIGDQTDYADSAKGRFTISRDESKNMVYLQMNSLRPEDTALYFCRAMSRIYPYDYWGQGTLVTVSS
RESULT: 0.00214 s⁻¹

QUERY: Proceed to T017000615 (VHH) VHH: EVQLVESGGGVVQPGGSLRLSCVASYDVHKINFYGWYRQAPGKEREKVAHISIGDQTDYADSAKGRFTISRDESKNMVYLQMNSLRPEDTALYFCRALSKIWPYDYWGQGTLVTVSS
RESULT: 0.00087 s⁻¹

QUERY: Proceed to T017000372 (VHH) VHH: EVQLVESGGGVVQPGGSLRLSCVASGYVHKINFYGWYRQAPGKEREKVAHISIGDQTDYADSAKGRFTISRDESKNMVYLQMNSLRPEDTALYFCRAMSRIYPYDYWGQGTLVTVSS
RESULT: 0.00122 s⁻¹

QUERY: Proceed to T017000374 (VHH) VHH: EVQLVESGGGVVQPGGSLRLSCVASYDVHQINFYGWYRQAPGKEREKVAHISIGDQTDYADSAKGRFTISRDESKNMVYLQMNSLRPEDTALYFCRAMSKIWPYDYWGQGTLVTVSS
RESULT: 0.000523 s⁻¹

QUERY: Proceed to T017000554 (VHH) VHH: EVQLVESGGGVVQPGGSLRLSCVASYDVHQINFLGWYRQAPGKEREKVAHISIGDQTDYADSAKGRFTISRDESKNMVYLQMNSLRPEDTALYFCRAMSKIYPYDYWGQGTLVTVSS
RESULT: 0.000767 s⁻¹

QUERY: Proceed to T017000754 (VHH) VHH: EVQLVESGGGVVQPGGSLRLSCVASGYVHQINFLGWYRQAPGKEREKVAHISIGDQTDYADSAKGRFTISRDESKNMVYLQMNSLRPEDTALYFCRAMSKIWPYDYWGQGTLVTVSS
RESULT: 0.000237 s⁻¹

QUERY: Proceed to T017000530 (VHH) VHH: EVQLVESGGGVVQPGGSLRLSCVASGAVHKLNFLGWYRQAPGKEREKVAHISIGDQTDYADSAKDRFTISRDESKNMVYLQMNSLRPEDTALYFCRAMSRIYPYDYWGQGTLVTVSS
RESULT: 0.00182 s⁻¹

QUERY: Proceed to T017000515 (VHH) VHH: EVQLVESGGGVVQPGGSLRLSCVASGAVHKINFLGWYRQAPGKEREKVAHISIGDQTDYADSAKGRFTISRDESKNMVYLQMNSLRPEDTALYFCRAMSRIWPYDYWGQGTLVTVSS
RESULT: 0.00126 s⁻¹

QUERY: Proceed to T017000419 (VHH) VHH: EVQLVESGGGVVQPGGSLRLSCVASGAVHKLNFYGWYRQAPGKEREKVAHISIGDQTDYADSAKGRFTISRDESKNMVYLQMNSLRPEDTALYFCRAMSRIWPYDYWGQGTLVTVSS
RESULT: 0.0011 s⁻¹

QUERY: Proceed to T017000371 (VHH) VHH: EVQLVESGGGVVQPGGSLRLSCVASGYVHKINFYGWYRQAPGKEREKVAHISIGDQTDYADSAKGRFTISRDESKNMVYLQMNSLRPEDTALYFCRAMSRIWPYDYWGQGTLVTVSS
RESULT: 0.000612 s⁻¹
